meta.source: patent US12281225B2

Test: Iodine color number according to DIN 6162:2014-09
Assay type: physicochemical
Details: Polymer P3 with stabilizer; 60 d 40° C.
assay.metric: Iodine color number, 60 d 40° C.
Simply state the number, no unit and no words.

# lookup: Iodine color number, 60 d 40° C. of CCCCCCCCn1sc(Cl)c(Cl)c1=O
9.1

# lookup: Iodine color number, 60 d 40° C. of CCCCNC(=O)OCC#CI [Iodopropynyl butyl carbamate, iodopropynyl butyl carbamate]
10.4

# lookup: Iodine color number, 60 d 40° C. of CCCCCCCCn1sccc1=O
9.2

###

Experiment: Iodine color number according to DIN 6162:2014-09
Assay type: physicochemical
Details: Polymer P2 with stabilizer; 60 d 40° C.
Task for the reader: assign each of the following compounds its reported Iodine color number, 60 d 40° C..
Simply state the number, no unit and no words.

# lookup: Iodine color number, 60 d 40° C. of Cn1sc(Cl)cc1=O
8.6

# lookup: Iodine color number, 60 d 40° C. of CCCCCCCCCCCCCCCC[N+](C)(C)Cc1ccccc1.[Cl-] [Polymer 16-BAC, cetylalkonium chloride]
3.1

# lookup: Iodine color number, 60 d 40° C. of O=c1[nH]sc2ccccc12
7.1

# lookup: Iodine color number, 60 d 40° C. of CCCCCCCCn1sccc1=O
8.0

# lookup: Iodine color number, 60 d 40° C. of Cn1sccc1=O
5.8
